Read-out: Macrophage colony-stimulating factor (MCSF), CSF1 (gene 1435)
protocolDetails: BSK_hDFCGF_MCSF: BioMAP Diversity Plus: hDFCGF Assay for Macrophage colony-stimulating factor (MCSF) Biomarker Activity (AID 2283060)
recordedConditions: primary human foreskin fibroblasts; actives raise or lower the signal
Calls of active or inactive are those of the source. The calls were made as follows: active = hit-call score of the fitted dose curve at least 0.9, where 1 is the maximum; inactive = score below 0.9.
Answer with one of the outcomes given here: 1.0 = active, 0.0 = inactive

Previously resolved entries follow.
compound	assignedCategory
CSc1nnc(C(C)(C)C)c(=O)n1N	0.0
CCC(=O)Nc1ccc(Cl)c(Cl)c1	0.0
O=C(O)c1cc(Oc2ccc(C(F)(F)F)cc2Cl)ccc1[N+](=O)[O-]	0.0

What call does the record list for CC1(C(=O)Nc2ccc(O)c(Cl)c2Cl)CCCCC1 ? 0.0

Now the same for C#CC(C)(C)NC(=O)c1cc(Cl)cc(Cl)c1 0.0

Then CC(Oc1cccc(Cl)c1)C(=O)O (stereo not drawn) ? 0.0

Can you check Nc1nc(N)nc(NC2CC2)n1 next? 0.0

Repeat for the following compound: CCOP(=S)(OCC)Oc1cc(C)nc(C(C)C)n1 0.0

Let us now turn to Cc1cc(C2CC2)nc(Nc2ccccc2)n1 0.0

---

Read-out: Cytochrome P450 4A22 (Homo sapiens)
protocolDetails: LTEA_HepaRG_CYP4A22: Life Technologies and Expression Analysis (LTEA) Assay for Cytochrome P450 4A22 (CYP4A22) using HepaRG (AID 2283495)
recordedConditions: mRNA level, 48 h; actives raise or lower the signal
Active and inactive are the calls of the source. The calls were made as follows: active = hit-call score of the fitted dose curve at least 0.9, where 1 is the maximum; inactive = score below 0.9.
Your response should consist of one outcome taken from True (active), False (inactive)

molecule	assignedCategory
FC(F)C(F)(F)OCC(Cn1cncn1)c1ccc(Cl)cc1Cl (stereo unspecified)	True
Nc1c(Cl)cc([N+](=O)[O-])cc1Cl	True

Now take the following molecule into account.
Hey, what did the test say about CC1=NNC(=O)N(/N=C/c2cccnc2)C1 ? False

---

protocolDetails: BSK_LPS_PGE2: BioMAP Diversity Plus: LPS Assay for Prostaglandin E2 (PGE2) Biomarker Activity (AID 2283082)
recordedConditions: primary human HUVEC with PBMC; actives raise or lower the signal
The source made the active and inactive calls. The calls were made as follows: active = hit-call score of the fitted dose curve at least 0.9, where 1 is the maximum; inactive = score below 0.9.
Classes to choose from: active, inactive

Reference set, count: 3
compound	assignedCategory
CCOP(=S)(OCC)Oc1ccc2c(C)c(Cl)c(=O)oc2c1	inactive
CCc1cccc(C)c1N(C(=O)CCl)C(C)COC (stereo not drawn)	inactive
CCOP(=S)(OCC)OC(Cl)C(Cl)(Cl)Cl (stereo not drawn)	active

Which outcome did this test record for the compound Cc1nn(-c2cc(NS(C)(=O)=O)c(Cl)cc2Cl)c(=O)n1C(F)F ? inactive

Also CCCCOC(=O)[C@@H](C)Oc1ccc(Oc2ccc(C#N)cc2F)cc1 , if possible. inactive

Follow-up item: CCCOCC(=Nc1ccc(Cl)cc1C(F)(F)F)n1ccnc1 inactive

What do we get for O=C(O)c1cc(Oc2ccc(C(F)(F)F)cc2Cl)ccc1[N+](=O)[O-] ? active

Do the same for COc1cccc(C(=O)NN(C(=O)c2cc(C)cc(C)c2)C(C)(C)C)c1C please inactive

Also CNC(=O)Oc1cccc2c1OC(C)(C)O2 ? inactive

Entry CCNc1nc(Cl)nc(NC(C)(C)C#N)n1 please inactive

Next up: C#CCC1=C(C)C(OC(=O)C2C(C=C(C)C)C2(C)C)CC1=O (stereo not drawn) active

Can you check CC(C)N(C(=O)SCC(Cl)=C(Cl)Cl)C(C)C next? active

Input CC(COc1ccc(Oc2ccccc2)cc1)Oc1ccccn1 (stereo not drawn) active

# repeat for CC(=NC#N)N(C)Cc1ccc(Cl)nc1 inactive

Then CSc1nc(NC(C)C)nc(NC(C)C)n1 ? inactive

Queued: CC1=NNC(=O)N(/N=C/c2cccnc2)C1 inactive

And C[Si](Cn1cncn1)(c1ccc(F)cc1)c1ccc(F)cc1 ? active

Queued: CCC(CC)Nc1c([N+](=O)[O-])cc(C)c(C)c1[N+](=O)[O-] inactive

Try COc1cc(OC)nc(Sc2cccc(Cl)c2C(=O)O)n1 next. inactive

Then CCOP(=S)(OCC)SCCSCC ? inactive

Do the same for CCOP(=S)(OCC)Oc1ccc([N+](=O)[O-])cc1 please active

Note, next up: CCc1cccc(CC)c1N(COC)C(=O)CCl inactive

Please give the result for CC(C)=CC1C(C(=O)OCN2C(=O)C3=C(CCCC3)C2=O)C1(C)C (stereo not drawn) too. active

---

Read-out: Signal transducer and activator of transcription 3 (Homo sapiens) (UniProt P40763)
Sequence (P40763 whole entry, looked up): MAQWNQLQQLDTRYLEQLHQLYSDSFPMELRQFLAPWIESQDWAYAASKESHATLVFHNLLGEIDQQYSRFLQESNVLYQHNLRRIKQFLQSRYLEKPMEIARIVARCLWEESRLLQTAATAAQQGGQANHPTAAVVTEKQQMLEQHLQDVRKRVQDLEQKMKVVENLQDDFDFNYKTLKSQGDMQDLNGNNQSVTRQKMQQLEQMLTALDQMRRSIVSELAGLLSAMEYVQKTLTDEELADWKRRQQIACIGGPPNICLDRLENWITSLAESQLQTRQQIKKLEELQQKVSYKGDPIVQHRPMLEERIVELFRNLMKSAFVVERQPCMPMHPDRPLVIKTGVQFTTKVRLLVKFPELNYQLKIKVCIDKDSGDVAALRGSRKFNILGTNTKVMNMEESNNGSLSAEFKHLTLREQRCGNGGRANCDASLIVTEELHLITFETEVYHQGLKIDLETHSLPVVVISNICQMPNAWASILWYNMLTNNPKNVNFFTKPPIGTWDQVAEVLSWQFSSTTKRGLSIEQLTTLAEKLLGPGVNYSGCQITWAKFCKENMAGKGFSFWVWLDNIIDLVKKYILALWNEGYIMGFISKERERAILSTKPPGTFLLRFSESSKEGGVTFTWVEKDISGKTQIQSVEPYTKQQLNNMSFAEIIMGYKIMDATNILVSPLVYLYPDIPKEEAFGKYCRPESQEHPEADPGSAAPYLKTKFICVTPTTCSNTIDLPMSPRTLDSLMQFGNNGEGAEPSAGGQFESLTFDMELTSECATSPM
protocolDetails: LTEA_HepaRG_STAT3: Life Technologies and Expression Analysis (LTEA) Assay for Signal transducer and activator of transcription (STAT3) using HepaRG (AID 2283529)
recordedConditions: mRNA level, 48 h; actives raise or lower the signal
Protocol: LTEA_HepaRG is a cell based, multiplexed-readout assay that uses HepaRG, a human liver cell line, with measurements taken at 48 hours after chemical dosing on a 96-well plate.LTEA_HepaRG_STAT3 is one of 102 assay component(s) measured in the LTEA HepaRG cell culture assay. It is a marker of Cell proliferation, survival, death.Data from the assay component LTEA_HepaRG_STAT3 was analyzed into 1 endpoint. […]
Calls of active or inactive are those of the source. How the source made its calls: active means hit-call score of the fitted dose curve at least 0.9, where 1 is the maximum; inactive means score below 0.9.
Reply using exactly one outcome from active, inactive

# fetch the recorded call for CCC(=NOC/C=C/Cl)C1=C(O)CC(C2CCOCC2)CC1=O (configuration not stated) here inactive

Also check CC(C)=CC1C(C(=O)OCN2C(=O)C3=C(CCCC3)C2=O)C1(C)C (configuration not stated) inactive

And the next one, CCc1cccc(CC)c1N(COC)C(=O)CCl ? inactive

# iterate: CCCCSP(=O)(SCCCC)SCCCC inactive

// repeat for Cc1cc(C2CC2)nc(Nc2ccccc2)n1 and report inactive

Same read-out for CCOP(=S)(OCC)Oc1cc(C)nc(C(C)C)n1 ? inactive

---

protocolDetails: BSK_4H_Eotaxin3: BioMAP Diversity Plus: 4H Assay for Eotaxin 3 Biomarker Activity (AID 2283000)
recordedConditions: primary human endothelial cells (HUVEC); actives raise or lower the signal
Activity calls are given as the source filed them. How the source made its calls: active means hit-call score of the fitted dose curve at least 0.9, where 1 is the maximum; inactive means score below 0.9.
Just give me one of these, please: active, inactive

For orientation, consider the following solved cases.
compound	assignedCategory
C#CC(C)(C)NC(=O)c1cc(Cl)cc(Cl)c1	inactive
CCOP(=S)(OCC)SCCSCC	inactive
CCOP(=S)(Oc1cnc(C(C)(C)C)nc1)OC(C)C (configuration not stated)	active

In this assay, the call recorded for C[N+]1(C)CCCCC1 was what? inactive

What do we get for Cc1cc(C2CC2)nc(Nc2ccccc2)n1 ? active

Let us now turn to CCC(CC)Nc1c([N+](=O)[O-])cc(C)c(C)c1[N+](=O)[O-] inactive

Next up: CC(C)N(C(=O)SCC(Cl)=C(Cl)Cl)C(C)C active

Another compound to look at: CON=C(C(=O)OC)c1ccccc1CON=C(C)c1cccc(C(F)(F)F)c1 active

How about COc1cccc(C(=O)NN(C(=O)c2cc(C)cc(C)c2)C(C)(C)C)c1C ? inactive

What about this compound? CC(Oc1cccc(Cl)c1)C(=O)O (configuration not stated) inactive

Another: Nc1c(Cl)cc([N+](=O)[O-])cc1Cl inactive

Can you handle CCCCN(CC)c1c([N+](=O)[O-])cc(C(F)(F)F)cc1[N+](=O)[O-] next? inactive

---

protocolDetails: Tanguay_ZF_120hpf_SNOU_legacy: (Legacy) Oregon State University Tanguay Lab 120 Hour Post-fertilization zebrafish Assay for Snout Malformation (AID 2283637)
Records with an inconclusive call do not appear. Calls of active or inactive are those of the source. How the source made its calls: active means hit-call score of the fitted dose curve at least 0.9, where 1 is the maximum; inconclusive means response in the unintended direction; inactive means score below 0.9.
Response enum: True = active, False = inactive

Worked cases, answers included:
compound	assignedCategory
CC1(C(=O)Nc2ccc(O)c(Cl)c2Cl)CCCCC1	False
COP(=O)(OC)SCn1c(=O)oc2cc(Cl)cnc21	True
C=C(C)[C@H]1Cc2c(ccc3c2O[C@@H]2COc4cc(OC)c(OC)cc4[C@@H]2C3=O)O1	False

Below: the item to evaluate.
Please let me know the test result on file for Cc1cc(C2CC2)nc(Nc2ccccc2)n1 . False

---

Read-out: Fatty acid synthase (Homo sapiens) (UniProt P49327)
Sequence (P49327 whole entry, looked up): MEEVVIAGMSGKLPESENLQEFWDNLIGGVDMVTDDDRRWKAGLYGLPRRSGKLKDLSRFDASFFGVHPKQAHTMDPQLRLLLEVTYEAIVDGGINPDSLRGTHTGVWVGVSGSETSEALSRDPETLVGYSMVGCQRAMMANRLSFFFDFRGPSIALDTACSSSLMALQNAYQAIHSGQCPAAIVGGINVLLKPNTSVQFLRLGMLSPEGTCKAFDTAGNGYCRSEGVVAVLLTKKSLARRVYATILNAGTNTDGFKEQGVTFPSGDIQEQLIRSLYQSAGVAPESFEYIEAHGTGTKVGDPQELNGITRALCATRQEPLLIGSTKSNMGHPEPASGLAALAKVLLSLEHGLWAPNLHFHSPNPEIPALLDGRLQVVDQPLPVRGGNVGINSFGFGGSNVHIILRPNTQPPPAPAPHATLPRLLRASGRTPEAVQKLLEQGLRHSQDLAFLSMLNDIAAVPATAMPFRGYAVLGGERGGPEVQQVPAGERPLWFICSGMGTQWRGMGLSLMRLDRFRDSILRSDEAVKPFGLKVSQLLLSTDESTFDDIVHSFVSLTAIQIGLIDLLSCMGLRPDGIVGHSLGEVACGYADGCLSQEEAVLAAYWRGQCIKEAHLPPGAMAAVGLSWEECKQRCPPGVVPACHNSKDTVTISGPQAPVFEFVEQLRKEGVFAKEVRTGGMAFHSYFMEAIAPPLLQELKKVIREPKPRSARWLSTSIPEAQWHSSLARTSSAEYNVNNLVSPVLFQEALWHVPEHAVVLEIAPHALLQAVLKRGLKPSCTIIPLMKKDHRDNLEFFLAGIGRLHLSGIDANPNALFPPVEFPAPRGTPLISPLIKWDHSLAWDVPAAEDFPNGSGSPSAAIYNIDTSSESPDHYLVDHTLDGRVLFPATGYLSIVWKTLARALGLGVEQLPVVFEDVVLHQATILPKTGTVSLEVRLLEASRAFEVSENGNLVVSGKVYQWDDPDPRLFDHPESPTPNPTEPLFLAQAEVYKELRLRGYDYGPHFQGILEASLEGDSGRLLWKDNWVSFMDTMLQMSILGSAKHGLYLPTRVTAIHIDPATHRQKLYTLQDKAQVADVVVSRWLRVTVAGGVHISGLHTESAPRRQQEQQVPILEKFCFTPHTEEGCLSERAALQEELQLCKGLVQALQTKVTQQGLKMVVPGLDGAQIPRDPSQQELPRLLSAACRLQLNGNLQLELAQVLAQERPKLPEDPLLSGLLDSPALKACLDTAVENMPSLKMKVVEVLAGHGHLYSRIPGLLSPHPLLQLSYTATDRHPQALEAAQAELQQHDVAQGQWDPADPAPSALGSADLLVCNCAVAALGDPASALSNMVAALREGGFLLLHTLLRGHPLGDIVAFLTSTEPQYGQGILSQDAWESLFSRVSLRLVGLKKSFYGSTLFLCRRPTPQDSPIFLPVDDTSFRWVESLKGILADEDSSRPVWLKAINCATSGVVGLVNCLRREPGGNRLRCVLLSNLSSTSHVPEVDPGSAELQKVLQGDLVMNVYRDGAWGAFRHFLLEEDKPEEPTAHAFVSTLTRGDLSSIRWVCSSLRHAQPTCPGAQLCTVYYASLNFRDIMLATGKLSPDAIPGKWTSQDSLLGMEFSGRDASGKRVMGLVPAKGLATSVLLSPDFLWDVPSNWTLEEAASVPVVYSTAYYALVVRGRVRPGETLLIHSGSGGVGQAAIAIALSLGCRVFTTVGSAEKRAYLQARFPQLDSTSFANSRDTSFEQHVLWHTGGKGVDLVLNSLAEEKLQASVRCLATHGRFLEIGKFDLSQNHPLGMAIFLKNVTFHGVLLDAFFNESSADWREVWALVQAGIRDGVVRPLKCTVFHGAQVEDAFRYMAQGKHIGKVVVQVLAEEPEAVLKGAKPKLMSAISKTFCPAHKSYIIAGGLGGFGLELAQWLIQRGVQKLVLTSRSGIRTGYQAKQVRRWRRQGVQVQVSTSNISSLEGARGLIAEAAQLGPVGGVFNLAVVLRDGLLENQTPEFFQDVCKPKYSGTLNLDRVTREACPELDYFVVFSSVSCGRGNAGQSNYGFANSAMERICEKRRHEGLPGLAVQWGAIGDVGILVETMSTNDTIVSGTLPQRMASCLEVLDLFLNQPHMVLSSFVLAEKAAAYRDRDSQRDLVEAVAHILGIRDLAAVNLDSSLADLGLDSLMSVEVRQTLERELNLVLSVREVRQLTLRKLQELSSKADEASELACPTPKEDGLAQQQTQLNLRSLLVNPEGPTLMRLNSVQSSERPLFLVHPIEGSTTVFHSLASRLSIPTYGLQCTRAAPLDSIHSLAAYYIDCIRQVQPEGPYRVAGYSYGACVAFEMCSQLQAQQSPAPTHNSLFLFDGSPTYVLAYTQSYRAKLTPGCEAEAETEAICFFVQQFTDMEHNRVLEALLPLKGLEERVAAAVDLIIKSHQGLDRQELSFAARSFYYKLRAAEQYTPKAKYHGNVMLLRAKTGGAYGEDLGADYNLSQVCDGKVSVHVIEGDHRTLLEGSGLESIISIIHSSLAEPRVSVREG
protocolDetails: LTEA_HepaRG_FASN: Life Technologies and Expression Analysis (LTEA) Assay for Fatty Acid Synthase (FASN) using HepaRG (AID 2283448)
recordedConditions: mRNA level, 48 h; actives raise or lower the signal
Calls of active or inactive are those of the source. The calls were made as follows: active = hit-call score of the fitted dose curve at least 0.9, where 1 is the maximum; inactive = score below 0.9.
Outcome field: choose from active, inactive

Please indicate how the test categorized O=c1ccc(=O)[nH][nH]1 . inactive

Also CC(C)N(C(=O)SCC(Cl)=C(Cl)Cl)C(C)C ? inactive

# iterate: CCCOc1nn(C(=O)NS(=O)(=O)c2ccccc2C(=O)OC)c(=O)n1C inactive

Same thing, different compound: C[Si](Cn1cncn1)(c1ccc(F)cc1)c1ccc(F)cc1 active

Do the same for Cc1ccn2nc(S(=O)(=O)Nc3c(F)cccc3F)nc2n1 please inactive

What do you get for CNC(=O)ON=C(SC)C(=O)N(C)C ? inactive

Repeat with CCc1cccc(C)c1N(C(=O)CCl)C(C)COC (configuration not stated) inactive
